# targetOrSystem: Serine/threonine-protein kinase B-raf (Homo sapiens, UniProt P15056, V600E)
# Sequence (P15056 2-766 V600E limits assumed): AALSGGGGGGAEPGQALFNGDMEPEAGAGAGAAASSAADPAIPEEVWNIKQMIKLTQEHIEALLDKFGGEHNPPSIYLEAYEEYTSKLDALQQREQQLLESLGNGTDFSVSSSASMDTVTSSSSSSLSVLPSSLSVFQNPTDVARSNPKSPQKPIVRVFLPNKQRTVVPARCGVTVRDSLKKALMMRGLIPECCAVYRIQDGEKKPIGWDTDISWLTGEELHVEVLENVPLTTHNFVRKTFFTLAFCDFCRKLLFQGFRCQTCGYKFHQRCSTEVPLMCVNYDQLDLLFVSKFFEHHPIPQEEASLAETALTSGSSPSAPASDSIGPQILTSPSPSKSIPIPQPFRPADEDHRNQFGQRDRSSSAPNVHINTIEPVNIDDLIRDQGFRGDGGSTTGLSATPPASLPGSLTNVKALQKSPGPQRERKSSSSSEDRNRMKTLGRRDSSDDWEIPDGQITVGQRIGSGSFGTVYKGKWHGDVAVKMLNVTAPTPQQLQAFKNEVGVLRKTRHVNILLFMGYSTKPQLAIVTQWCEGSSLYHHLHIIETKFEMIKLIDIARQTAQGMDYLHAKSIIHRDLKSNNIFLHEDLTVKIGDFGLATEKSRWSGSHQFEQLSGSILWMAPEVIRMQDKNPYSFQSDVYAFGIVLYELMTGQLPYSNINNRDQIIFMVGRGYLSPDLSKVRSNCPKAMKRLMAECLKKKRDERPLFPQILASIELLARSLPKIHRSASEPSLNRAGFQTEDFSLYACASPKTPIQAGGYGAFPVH
# assayOverview: Inhibition of human BRAF V600E mutant expressed in Sf9 cells
recordedEndpoint: pIC50
pIC50 is a log-scale quantity: -log10 of the concentration expressed in molar.

Item under review: `Cc1ccc(-n2nc(C(F)(F)F)cc2NC(=O)c2cccc(Oc3ccnc4[nH]c(=O)[nH]c34)c2)cc1` . Reported pIC50?
6.30

Item under review: `O=C(Nc1cccc(Oc2ccnc3[nH]c(=O)[nH]c23)c1)Nc1cc(C(F)(F)F)ccc1N1CCOCC1` . Reported pIC50?
6.13

Item under review: `O=C(Nc1cccc(Oc2ccnc3[nH]c(=O)[nH]c23)c1)c1cccc(OC(F)(F)F)c1` . Reported pIC50?
7.85

Item under review: `O=C(Nc1cc(Oc2ccnc3[nH]c(=O)[nH]c23)c(Cl)cc1Cl)c1cccc(OC(F)(F)F)c1` . Reported pIC50?
6.11

Item under review: `Cc1ccc(-n2nc(C(F)(F)F)cc2NC(=O)Nc2cccc(Oc3ccnc4[nH]c(=O)[nH]c34)c2)cc1` . Reported pIC50?
6.40

Item under review: `O=C(Nc1cccc(Oc2ccnc3[nH]c(=O)[nH]c23)c1)c1ccc(F)c(OC(F)(F)F)c1` . Reported pIC50?
7.31

====

# assayOverview: Antiproliferative activity against human WM266.4 cells after 6 days by SRB assay
# Type: functional
# experimentalContext: WM 266-4, 144 h
// assign Condition met if GI50 falls strictly below 20 µM, else Condition not met (ties count as Condition not met)

Consider the worked cases shown below.
In [3]: df
Out[3]:
                                  molsmiles        answerlabel
0  O=C(Nc1cccc(Oc2ccnc3[nH]c(=O)[nH]c23)c1)c1ccnc(Cl)c1  Condition not met
1  CC(C)(C)c1cc(C(=O)Nc2cccc(Oc3ccnc4[nH]c(=O)[nH]c34)c2)n(-c2ccccc2)n1      Condition met
2  O=C(Nc1cccc(Oc2ccnc3[nH]c(=O)[nH]c23)c1)c1ccccc1      Condition met
3  Cc1ccc(-n2nc(C(F)(F)F)cc2NC(=O)c2cccc(Oc3ccnc4[nH]c(=O)[nH]c34)c2)cc1  Condition not met

Now look at this one.
Hello, I'm reviewing records and need to know if GI50 of `O=c1[nH]c2nccc(Oc3cccc(NS(=O)(=O)c4ccccc4)c3)c2[nH]1` is below 20 µM. Could you check?
Condition met

====

Parameter GI50: see the listing below.
# assayOverview: Antiproliferative activity against human WM266.4 cells after 6 days by SRB assay
# Format: functional
# experimentalContext: WM 266-4, 144 h
Output spec: scalar in µM, unitless text.

// solved cases for GI50 follow
>>> df
                                  molsmiles  recordedresult
0  O=C(Nc1cccc(OC(F)(F)C(F)F)c1)c1cccc(Oc2ccnc3[nH]c(=O)[nH]c23)c1           0.677
1  O=C(Nc1cccc(Oc2ccnc3[nH]c(=O)[nH]c23)c1)c1cccc(SC(F)(F)F)c1             5.1

Item under review: `O=c1[nH]c2nccc(Oc3cccc(NS(=O)(=O)c4cccc(OC(F)(F)F)c4)c3)c2[nH]1` . Reported GI50?
0.83

Item under review: `Cc1ccc(-n2nc(C(C)(C)C)cc2NC(=O)Nc2cccc(Oc3ccnc4[nH]c(=O)[nH]c34)c2)cc1` . Reported GI50?
0.705

Item under review: `O=C(Nc1cccc(Oc2ccnc3[nH]c(=O)[nH]c23)c1)c1cccc(-n2cccc2)c1` . Reported GI50?
1.1
